Source: patent US11912693B2

# Target or test system: UniProt P21453
# Sequence (P21453 whole entry, looked up): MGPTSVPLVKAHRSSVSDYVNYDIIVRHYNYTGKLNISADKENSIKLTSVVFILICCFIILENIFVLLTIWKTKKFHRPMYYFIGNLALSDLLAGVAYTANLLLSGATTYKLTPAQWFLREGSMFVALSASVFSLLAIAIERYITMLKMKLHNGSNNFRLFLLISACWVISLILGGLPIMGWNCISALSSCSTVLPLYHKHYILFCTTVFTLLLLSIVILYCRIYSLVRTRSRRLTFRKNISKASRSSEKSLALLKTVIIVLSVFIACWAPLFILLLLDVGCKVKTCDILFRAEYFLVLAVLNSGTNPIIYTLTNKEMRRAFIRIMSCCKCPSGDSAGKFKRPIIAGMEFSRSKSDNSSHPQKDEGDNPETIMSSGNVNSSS
# Sequence (P32121 whole entry partner, looked up): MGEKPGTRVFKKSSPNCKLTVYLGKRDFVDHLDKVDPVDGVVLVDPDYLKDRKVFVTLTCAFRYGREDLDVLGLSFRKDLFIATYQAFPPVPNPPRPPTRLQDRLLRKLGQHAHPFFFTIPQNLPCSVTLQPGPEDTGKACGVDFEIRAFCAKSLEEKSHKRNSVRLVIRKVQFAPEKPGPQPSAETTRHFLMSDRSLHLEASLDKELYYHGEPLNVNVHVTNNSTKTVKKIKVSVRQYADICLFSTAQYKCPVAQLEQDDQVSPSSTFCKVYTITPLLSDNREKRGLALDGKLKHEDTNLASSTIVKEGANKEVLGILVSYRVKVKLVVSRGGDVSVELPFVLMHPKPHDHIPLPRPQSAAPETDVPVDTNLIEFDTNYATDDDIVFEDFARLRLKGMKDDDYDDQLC
# Assay info: β-Arrestin2 recruitment assay (PathHunter), S1P1 CHO-K1 cells
# Assay type: cell-based
# Condition notes: β-arrestin2 recruitment, S1P1 CHO-K1 cells
Measurement kind: hS1P1 B-arrestin2 pEC50

Guide cases for hS1P1 B-arrestin2 pEC50, answers given:
{"Molecule": "CC(C)n1nnc2cc(-c3nc(-c4ccc5nc[nH]c5c4)no3)ccc21 [Compound 511]", "Target or test system": "UniProt P21453", "hS1P1 B-arrestin2 pEC50": ">5"}
{"Molecule": "Cn1cnc2cc(-c3nnc(-c4ccc(NCC(F)F)c(C#N)c4)o3)ccc21 [Compound 573]", "Target or test system": "UniProt P21453", "hS1P1 B-arrestin2 pEC50": "<5"}
{"Molecule": "CC(C)Nc1ccc(-c2nc(-c3ccc4c(c3)CCNC4=O)no2)cc1C#N [Compound 442]", "Target or test system": "UniProt P21453", "hS1P1 B-arrestin2 pEC50": ">5"}

The reported hS1P1 B-arrestin2 pEC50 of the molecule COc1ccccc1-c1noc(-c2ccc3[nH]ccc3c2)n1 [Compound 368] was <5

The reported hS1P1 B-arrestin2 pEC50 of the molecule CC(C)Nc1ccc(-c2ncc(-c3ccc4[nH]c(=O)[nH]c4c3)cn2)cc1C#N [Compound 628] was >5

The reported hS1P1 B-arrestin2 pEC50 of the molecule COc1ccc(-c2nsc(-c3ccc4[nH]ccc4c3)n2)cc1 [Compound 363] was <5

The reported hS1P1 B-arrestin2 pEC50 of the molecule Cc1ccccc1-c1cc(-c2ccc3c(c2)nnn3C(C)C)c[nH]1 [Compound 601] was >5

The reported hS1P1 B-arrestin2 pEC50 of the molecule CC(C)n1nnc2cc(-c3noc(-c4ccc(COc5ccccc5)cc4)n3)ccc21 [Compound 131] was <5

The reported hS1P1 B-arrestin2 pEC50 of the molecule CCC1(CC)CC(=O)c2cc(-c3ncc(-c4ccccc4OC)cn3)ccc2O1 [Compound 594] was >5

The reported hS1P1 B-arrestin2 pEC50 of the molecule CC(C)Nc1ccc(-c2ccc(-c3ccc4c(c3)nnn4C(C)C)cc2)cc1C#N [Compound 507] was <5

The reported hS1P1 B-arrestin2 pEC50 of the molecule CC(C)(O)Cn1nnc2cc(-c3nc(-c4cccc5cc[nH]c45)no3)ccc21 [Compound 577] was >5

The reported hS1P1 B-arrestin2 pEC50 of the molecule CCC1(CC)CC(=O)c2cc(-c3nc(-c4ccnc(O)c4)no3)ccc2O1 [Compound 263] was >5

The reported hS1P1 B-arrestin2 pEC50 of the molecule CC(C)n1ncc2cc(-c3nc(-c4ccccc4Cl)no3)ccc21 [Compound 330] was >5

The reported hS1P1 B-arrestin2 pEC50 of the molecule COc1cccc(-c2nc(-c3ccc4c(c3)nnn4C3CCCC3)no2)c1 [Compound 130] was <5

The reported hS1P1 B-arrestin2 pEC50 of the molecule CC(C)n1nnc2cc(-c3ncc(-c4ccccc4C(F)(F)F)s3)ccc21 [Compound 215] was <5

The reported hS1P1 B-arrestin2 pEC50 of the molecule CC(C)n1ccc2cc(-c3nc(-c4ccccc4F)ns3)ccc21 [Compound 374] was <5

The reported hS1P1 B-arrestin2 pEC50 of the molecule Cc1ccccc1Cc1noc(-c2ccc3c(c2)nnn3C(C)C)n1 [Compound 202] was <5

The reported hS1P1 B-arrestin2 pEC50 of the molecule CC(C)Oc1ccccc1-c1noc(-c2ccc3c(cnn3C(C)C)c2)n1 [Compound 334] was <5
